test: concentration in blood after tail vein injection, ICP-MASS of iridium; conditions: mouse, in vivo, BALB/c mice, 100 μL of 500 μM, read-out: elimination half-life in the blood
Where a SMILES comes first, the peptide text is derived from it.
MEASURED_ATTRIBUTE: half-life

// query Find the measured half-life of CC(=O)N[C@@H](Cc1c[nH]cn1)C(=O)N[C@@H](CCCNC(=N)N)C(=O)N[C@@H](CCCNC(=N)N)C(=O)N[C@@H](CCCNC(=N)N)C(=O)N[C@@H](CCCNC(=N)N)C(=O)N[C@@H](CCCNC(=N)N)C(=O)N[C@@H](CCCNC(=N)N)C(=O)N[C@@H](CCCNC(=N)N)C(=O)N[C@@H](CCCNC(=N)N)C(=O)N[C@@H](Cc1c[nH]cn1)C(N)=O [Ir-cR8] (Ac-HRRRRRRRRH-NH2) and report it.
// result < 30 min
